Reference for the values: the RNAGym collection of RNA variant scans (doi:10.7554/elife.80360)

B1: Twister Ribozyme (parent)
chain: AACACUGCCAAUGCCGGUCCCAAGCCCGGAUAAAAGUGGAGGGGGCGG

variants of: B1; test: self-cleavage, relative activity (ratio to wild type); higher = more cleavage; co-transcriptional

sequence.variant	self-cleavage
C5U A23G	0.23
G44U G45A	0.825
G39U A40C	0.134
C21A G38U	0.0847
C3U G48U	0.562
G16C A22G	0.0711
G16U U37C	0.261
C9A U31A	0.72
C19U G48U	0.91
C26U G47A	0.149
C19U C20G	0.0718
G39A G45C	0.234
U6G G7C	0.873
U31G G44U	0.882
G44U G47U	0.783
A30C A40U	0.0909
U6G A35U	0.549
A22C A35U	0.962
U18G G42U	0.0585
G16U C46G	0.963
A22U G48C	0.954
G7A G44U	0.422
C3U G44A	0.382
G13C G24C	0.0811
G24C C46U	0.126
A4G G29U	0.851
U18G G47C	0.0806
A33U A34U	0.847
C26A U37G	0.17
A40G G45A	0.146
G29U G47A	0.71
C21G G38A	0.11
U18A G41U	0.125
G28C G47A	0.28
U37A G47C	0.292
U12C G39C	0.127
C21A C25G	0.0507
C5G G39U	0.134
A10U A32G	0.896
A35G G42C	0.141
G7A U31G	0.647
C27U G47U	0.632
G29U G41A	0.422
A4C A40U	0.0853
A11C G39U	0.214
C15A A23G	0.141
C8G A40U	0.0905
C25A C46G	0.0534
A35G G47C	0.562
G7A C20U	0.116
U6A G44A	0.943
G47U G48A	0.819
G43U	0.537
G24C C25U	0.114
A30U G41A	0.621
C21A G43A	0.0637
G29C A32C	0.662
C5G A22G	0.137
A4G G41C	0.181
A23C U37A	0.088
C20U U31A	0.68
C9G G44C	0.395
C14G G48U	0.128
G16A G39A	0.185
G7U A30U	0.0836
G42A G43C	0.113
A2G C14U	0.275
G7C A11C	0.0664
A4C G48A	0.134
C15A U37C	0.168
C3U C20A	0.07
A2C C26A	0.0536
G28U G45A	0.637
U6C G43A	0.0844
C25A G29C	0.0958
U31A G44A	0.689
C14A U31G	0.942
A2G C27U	0.218
A4U A22U	0.0795
A40U G47A	0.164
U37A A40C	0.127
G16U G29C	0.544
C21U A23C	0.0826
U37G G45U	0.47
C21U G38C	0.0755
